- Test system: rodent lifetime carcinogenesis bioassay, tumor incidence TD50
- assay-comment: carcinogenic potency in animals, long-term in vivo studies, CPDB compilation (AID 1745844)
- experimental-parameters: rat; strain Fischer 344; females; in feed; site: kidney + large intestine + urinary bladder; lesion: transitional-cell carcinoma + transitional-cell papilloma + adenomatous polyp + carcinoma + sarcoma + squamous-cell carcinoma + squa; dosed 27 weeks; study length 104 weeks
reported-property: TD50 (mg/kg/day)
The figure you give is taken to be in mg/kg/day; do not add the unit.

So for COc1ccccc1[N+](=O)[O-] , the logged TD50 turned out to be 12.9

###

- Tested on: rodent lifetime carcinogenesis bioassay, tumor incidence TD50
- assay-comment: carcinogenic potency in animals, long-term in vivo studies, CPDB compilation (AID 1745844)
- experimental-parameters: mouse; strain Swiss; both sexes; by gavage; site: lung; lesion: one or several types; types not named; dosed 54 weeks; study length 54 weeks
reported-property: TD50

So for O=S(=O)(O)O , the logged TD50 turned out to be 3.92 mg/kg/day

###

- Tested on: rodent lifetime carcinogenesis bioassay, tumor incidence TD50
- assay-comment: carcinogenic potency in animals, long-term in vivo studies, CPDB compilation (AID 1745844)
- experimental-parameters: mouse; strain Slc:ddY; females; in feed; site: any site (literature study); lesion: several types; types named in the paper; dosed 78 weeks; study length 78 weeks
reported-property: TD50 (mg/kg/day)
The figure you give is taken to be in mg/kg/day; do not add the unit.

So for O=P(OCCCl)(OCCCl)OCCCl , the logged TD50 turned out to be 880

###

- System: rodent lifetime carcinogenesis bioassay, tumor incidence TD50
- assay-comment: carcinogenic potency in animals, long-term in vivo studies, CPDB compilation (AID 1745844)
- experimental-parameters: rat; strain Wistar/FDRL; both sexes; in feed; site: bile duct; lesion: adenoma; dosed 104 weeks; study length 104 weeks
reported-property: TD50

Note to self: TD50 of CC(COc1ccc(C(C)(C)C)cc1)OS(=O)OCCCl (stereo unspecified) with rodent lifetime carcinogenesis bioassay, tumor incidence TD50 was 397 mg/kg/day

###

- Test system: rodent lifetime carcinogenesis bioassay, tumor incidence TD50
- assay-comment: carcinogenic potency in animals, long-term in vivo studies, CPDB compilation (AID 1745844)
- experimental-parameters: mouse; strain Swiss; females; in feed; site: any site (literature study); lesion: several types; types named in the paper; dosed 33 weeks; study length 52 weeks
reported-property: TD50

So for O=CNNc1nc(-c2ccc([N+](=O)[O-])o2)cs1 , the logged TD50 turned out to be 2.42 mg/kg/day

###

- Tested on: rodent lifetime carcinogenesis bioassay, tumor incidence TD50
- assay-comment: carcinogenic potency in animals, long-term in vivo studies, CPDB compilation (AID 1745844)
- experimental-parameters: rat; strain Sprague-Dawley; males; in feed; site: liver; lesion: cholangiocarcinoma; dosed 104 weeks; study length 104 weeks
reported-property: TD50

So for O=c1ccc2ccccc2o1 , the logged TD50 turned out to be 302 mg/kg/day

###

- Tested on: rodent lifetime carcinogenesis bioassay, tumor incidence TD50
- assay-comment: carcinogenic potency in animals, long-term in vivo studies, CPDB compilation (AID 1745844)
- experimental-parameters: rat; strain Fischer 344; males; in feed; site: preputial gland; lesion: carcinoma, NOS; dosed 103 weeks; study length 104 weeks
# TD50 listing for each entry below
The figure you give is taken to be in mg/kg/day; do not add the unit.

* NC(=O)NN=Cc1ccc([N+](=O)[O-])o1 | 65.5

Please look at the following compound next.
So for CCn1cc(C(=O)O)c(=O)c2ccc(C)nc21 , the logged TD50 turned out to be 211

###

- Test system: rodent lifetime carcinogenesis bioassay, tumor incidence TD50
- assay-comment: carcinogenic potency in animals, long-term in vivo studies, CPDB compilation (AID 1745844)
- experimental-parameters: hamster; strain Syrian Golden; females; in feed; site: uterus; lesion: leiomyoma; dosed 104 weeks; study length 104 weeks
Active and inactive are the calls of the source. No rule for the calls is given here.
reported-property: TD50

Note to self: TD50 of C[C@@H]1O[C@@H](OC[C@H]2O[C@@H](Oc3c(-c4ccc(O)c(O)c4)oc4cc(O)cc(O)c4c3=O)[C@H](O)[C@@H](O)[C@@H]2O)[C@H](O)[C@H](O)[C@H]1O with rodent lifetime carcinogenesis bioassay, tumor incidence TD50 was 140000 mg/kg/day (inactive)

###

- System: rodent lifetime carcinogenesis bioassay, tumor incidence TD50
- assay-comment: carcinogenic potency in animals, long-term in vivo studies, CPDB compilation (AID 1745844)
- experimental-parameters: rat; strain Fischer 344; males; by gavage; site: Zymbal's gland; lesion: several types; types named in the paper; dosed 37 weeks; study length 55 weeks
reported-property: TD50 (mg/kg/day)
The figure you give is taken to be in mg/kg/day; do not add the unit.

Note to self: TD50 of NC(=O)N(CCO)N=O with rodent lifetime carcinogenesis bioassay, tumor incidence TD50 was 0.568

###

- System: rodent lifetime carcinogenesis bioassay, tumor incidence TD50
- assay-comment: carcinogenic potency in animals, long-term in vivo studies, CPDB compilation (AID 1745844)
- experimental-parameters: rat; strain Fischer 344; males; in drinking water; site: colon; lesion: adenocarcinoma; dosed 97 weeks; study length 97 weeks
reported-property: TD50 (mg/kg/day)
The figure you give is taken to be in mg/kg/day; do not add the unit.

So for COc1cc(-c2ccc(N=Nc3c(S(=O)(=O)O)cc4cc(S(=O)(=O)O)cc(N)c4c3O)c(OC)c2)ccc1N=Nc1c(S(=O)(=O)O)cc2cc(S(=O)(=O)O)cc(N)c2c1O , the logged TD50 turned out to be 355

###

- Test system: rodent lifetime carcinogenesis bioassay, tumor incidence TD50
- assay-comment: carcinogenic potency in animals, long-term in vivo studies, CPDB compilation (AID 1745844)
- experimental-parameters: mouse; strain Charles River CD (Sprague-Dawley); females; in feed; site: any site (literature study); lesion: malignant tumor; dosed 100 weeks; study length 100 weeks
Calls of active or inactive are those of the source. No rule for the calls is given here.
reported-property: TD50

So for O=C1C(c2[nH]c3ccc(S(=O)(=O)O)cc3c2O)=Nc2ccc(S(=O)(=O)O)cc21 , the logged TD50 turned out to be 33900 mg/kg/day (inactive)

###

- Test system: rodent lifetime carcinogenesis bioassay, tumor incidence TD50
- assay-comment: carcinogenic potency in animals, long-term in vivo studies, CPDB compilation (AID 1745844)
- experimental-parameters: rat; strain Charles River CD (Sprague-Dawley); males; in feed; site: forestomach; lesion: papilloma; dosed 47 weeks; study length 69 weeks
reported-property: TD50

So for C=CC(OC(C)=O)c1ccc2c(c1)OCO2 (stereo unspecified) , the logged TD50 turned out to be 30.7 mg/kg/day

###

- Test system: rodent lifetime carcinogenesis bioassay, tumor incidence TD50
- assay-comment: carcinogenic potency in animals, long-term in vivo studies, CPDB compilation (AID 1745844)
- experimental-parameters: rat; strain Fischer 344; females; in drinking water; site: liver; lesion: several types; types named in the paper; dosed 30 weeks; study length 75 weeks
reported-property: TD50 (mg/kg/day)
The figure you give is taken to be in mg/kg/day; do not add the unit.

So for CC(O)CN(C)N=O (stereo unspecified) , the logged TD50 turned out to be 0.798

###

- Tested on: rodent lifetime carcinogenesis bioassay, tumor incidence TD50
- assay-comment: carcinogenic potency in animals, long-term in vivo studies, CPDB compilation (AID 1745844)
- experimental-parameters: mouse; strain B6C3F1; males; inhaled; site: liver; lesion: hepatocellular adenoma + hepatocellular carcinoma + neoplastic nodule; dosed 100 weeks; study length 100 weeks
reported-property: TD50 (mg/kg/day)
The figure you give is taken to be in mg/kg/day; do not add the unit.

So for CCCl , the logged TD50 turned out to be 34100

###

- System: rodent lifetime carcinogenesis bioassay, tumor incidence TD50
- assay-comment: carcinogenic potency in animals, long-term in vivo studies, CPDB compilation (AID 1745844)
- experimental-parameters: rat; strain Fischer 344; males; inhaled; site: nasal cavity, respiratory epithelium, lateral wall + nasal cavity, respiratory epithelium; lesion: adenoma + carcinoma + squamous-cell carcinoma; dosed 102 weeks; study length 105 weeks
reported-property: TD50

So for OCc1ccco1 , the logged TD50 turned out to be 9.6 mg/kg/day

###

- System: rodent lifetime carcinogenesis bioassay, tumor incidence TD50
- assay-comment: carcinogenic potency in animals, long-term in vivo studies, CPDB compilation (AID 1745844)
- experimental-parameters: mouse; strain B6C3F1; males; by gavage; site: lung; lesion: alveolar/bronchiolar carcinoma; dosed 78 weeks; study length 78 weeks
Calls of active or inactive are those of the source. How the calls were made is not given here.
reported-property: TD50

So for CC1=C(C(=O)OC(C)C)C(c2cccc([N+](=O)[O-])c2)C(C(=O)OC2CN(C(c3ccccc3)c3ccccc3)C2)=C(N)N1 (stereo unspecified) , the logged TD50 turned out to be 227 mg/kg/day (inactive)

###

- Test system: rodent lifetime carcinogenesis bioassay, tumor incidence TD50
- assay-comment: carcinogenic potency in animals, long-term in vivo studies, CPDB compilation (AID 1745844)
- experimental-parameters: mouse; strain CF-1; females; in feed; site: liver; lesion: several types; types named in the paper; dosed 122 weeks; study length 138 weeks
reported-property: TD50

So for ClC1=C(Cl)[C@]2(Cl)[C@@H]3[C@@H]4C[C@@H]([C@H]5O[C@@H]45)[C@@H]3[C@@]1(Cl)C2(Cl)Cl , the logged TD50 turned out to be 0.642 mg/kg/day

Source of measurements: PubChem BioAssay AID1745844
